Origin of the recorded values: PubChem BioAssay (NCI)

Measured GI50 accompanies every entry in the list below.
test system: UACC-257 melanoma; experiment: NCI tumour cell line growth inhibition, 48 h
READOUT NAME: GI50

| COMPOUND | READOUT NAME | RESULT |
| --- | --- | --- |
| CC(N)(Cc1c[nH]c2ccccc12)C(=O)O (stereo unspecified) | GI50 | > 2500 µM |
| NC(=O)c1ccc2nc(-c3ccc(C4(N)CCC4)cc3)c(-c3ccccc3)n2n1 | GI50 | 13.2 µM |
| COc1ccc2[nH]c(-c3ccccc3)c(C=C(C#N)C#N)c2c1 | GI50 | 30 µM |
| OC(COc1cccc2ccccc12)CN1CCN(c2ccc(Cl)cc2)CC1 (stereo unspecified) | GI50 | 42.3 µM |
| C=CC[N+]1(CCO)CCN=C1CCCCCCCCCCCCC (stereo unspecified) | GI50 | 1.76 µM |
| CN(C)CCN1C(=O)c2cccc3c(N)ccc(c23)C1=O | GI50 | 11.2 µM |
